# EXPERIMENTAL DETAILS: Pharmacokinetics in Sprague Dawley rats, single subcutaneous or intravenous dose (incl. 10, 30, 100 nmol/kg dose response)
# Assay type: in vivo
# COND: male, Sprague Dawley, rat, plasma, iv, 187 nmol/kg, single intravenous dose 187 nmol/kg, Mean
*1 amine or outer side, *2 acyl side, *3 side chain or, on linkers, in order; H or OH if unused. Side-chain parts run from the residue outwards. [ ]: non-standard residue; d: D form. The star is where a group is joined. C20 diacid = O=C(O)CCCCCCCCCCCCCCCCCCC(=O)*; γGlu = O=C(O)[C@H](CCC(=O)[*:2])N[*:1]; εLys = N[C@@H](CCCCN[*:1])C(=O)[*:2]; αMeL = CC(C)C[C@](C)(N)C(=O)O; AEEA = NCCOCCOCC(=O)O; Aib = CC(C)(N)C(=O)O
OUTCOME MEASURE: clearance (mL/h/kg)

Ac-GSPSIVTS[αMeL]DVPT[Aib][αMeL]LQKILEQERAEKARQQAK([γGlu-AEEA-εLys-C20 diacid])EAAEILAQV-NH2 [SEQ ID NO: 1]    2.05
